B1: INTS3 (parent)
chain: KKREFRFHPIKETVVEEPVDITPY

variants of: B1; assay: protein stability index of a GFP-peptide fusion (GPS, HEK-293T) (PSI 1-6); higher = more stable; conditions: c terminus: a fixed tail appended;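 further: lentivirally expressed fusions sorted by FACS into six bins by GFP to DsRed ratio, PSI derived from sequencing read proportions per bin multiplied by bin number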
Assignment: determine reported protein stability index for the given variants.
A bare number is all that is needed in reply.

[Q] Any idea what protein stability index was measured for Y24V ?
[A] 2.26

[Q] Any idea what protein stability index was measured for P23T ?
[A] 1.46

[Q] Any idea what protein stability index was measured for I10Y ?
[A] 4.54

[Q] Any idea what protein stability index was measured for R6E ?
[A] 4.48

[Q] Any idea what protein stability index was measured for E17P ?
[A] 1.59

[Q] Any idea what protein stability index was measured for P18V ?
[A] 1.83

[Q] Any idea what protein stability index was measured for P18A ?
[A] 1.87

[Q] Any idea what protein stability index was measured for F5V ?
[A] 4.63

[Q] Any idea what protein stability index was measured for E17D ?
[A] 1.79

[Q] Any idea what protein stability index was measured for R3C ?
[A] 2.35

[Q] Any idea what protein stability index was measured for K11Y ?
[A] 2.7
